test: NCI Yeast Anticancer Drug Screen. Data for the mlh1 rad18 strain (AID 175); details: S. cerevisiae mlh1 rad18 strain growth inhibition; at 50.0 µM; hits give high values
Compounds without any hit were thinned out: in the full panel of roughly 79,000, 15% have a hit.
Exercise: state measured growth inhibition for each of the compounds provided.
Form entry: value (%) — number only.

// growth inhibition lookup, compound = CC(=O)CC(O)(C(F)(F)Cl)C(F)(Cl)Cl (stereo not drawn) , result: -35.8

// growth inhibition lookup, compound = COC1CC(OC2C(C)OC(OC3C(C)OC(OC4C(C)OC(O[C@H]5CC[C@@]6(C)C(=CC[C@]7(O)[C@@H]6C[C@@H](OC(=O)/C=C/c6ccccc6)[C@@]6(C)[C@]7(O)CC[C@@]6(O)C(C)=O)C5)CC4OC)CC3OC)CC2OC)OC(C)C1O (stereo partly drawn) , result: -27.6

// growth inhibition lookup, compound = CCOCc1ccccc1C(O)(c1ccc(OC)cc1)c1ccccc1OC (stereo not drawn) , result: 57.4

// growth inhibition lookup, compound = Cc1nc(C(N)=O)c(=O)[nH]c1C , result: 13.7

// growth inhibition lookup, compound = Cc1ccc(NC(=S)SCc2ccc([N+](=O)[O-])cc2)cc1C , result: 2.95

// growth inhibition lookup, compound = NC(=O)/C=C/c1cccnc1 , result: 13

// growth inhibition lookup, compound = Cc1cn(C2OC(CO[Si](C)(C)C(C)(C)C)C(N(C)O[Si](C)(C)C(C)(C)C)C2[Se]c2ccccc2)c(=O)[nH]c1=O (stereo not drawn) , result: -15.2

// growth inhibition lookup, compound = COc1cc(OC)cc(C2OC3=C(Nc4ccccc4N3)C2=O)c1 (stereo not drawn) , result: 28.1

// growth inhibition lookup, compound = CCOC(=O)c1c(C)c2c(n1Cc1ccccc1)CCCC2=O , result: 19.4

// growth inhibition lookup, compound = Cc1c(S)cnc2ccccc12 , result: 2.85

// growth inhibition lookup, compound = Cc1ccc(C)n1N(c1ccccc1)c1ccccc1 , result: 9.1

// growth inhibition lookup, compound = CC(C)CC(NC(=O)CN)C(=O)O (stereo not drawn) , result: -0.85

// growth inhibition lookup, compound = CNC(=O)OCc1c(COC(=O)NC)c(-c2ccc(C(C)(C)C)cc2)n(C)c1C , result: 22.1

// growth inhibition lookup, compound = CN(C)Cc1ccc2ccccc2c1 , result: -14.3

// growth inhibition lookup, compound = O=C(O)c1cc(O)c(C(=O)O)cc1O , result: 0.3

// growth inhibition lookup, compound = O=C(O)C1=C(c2ccccc2)C=C(c2ccccc2)C1 , result: 28.9

// growth inhibition lookup, compound = O=[N+]([O-])c1ccc(C=C2C=c3ccccc3=C2)cc1 , result: 7.3

// growth inhibition lookup, compound = CCOC(=O)c1[nH]cc(C)c1-c1c[nH]c2ccccc12 , result: 41.2

// growth inhibition lookup, compound = CN(C)Cc1ccccc1C(=C(c1ccccc1)c1ccccc1)c1ccccc1 , result: -10.9

// growth inhibition lookup, compound = N#Cc1ncn(CCO)c1N , result: -43.5

// growth inhibition lookup, compound = CC(=O)Nc1cccc2ccc([N+](=O)[O-])cc12 , result: 7.85

// growth inhibition lookup, compound = CCOC(=O)c1ccc(NC(=O)Nc2ccc(OC)c([N+](=O)[O-])c2)cc1 , result: -5.2

// growth inhibition lookup, compound = Nc1ncc[nH]c1=O , result: -20.2

// growth inhibition lookup, compound = O=c1oc2ccccc2c(O)c1Cc1cccc(Cc2c(O)c3ccccc3oc2=O)c1 , result: 5

// growth inhibition lookup, compound = O=C(NC1CC1)C1CC1 , result: -1.35

// growth inhibition lookup, compound = CN(C=O)C1CCC2C3CC=C4CC(OC=O)CCC4(C)C3CCC21C (stereo not drawn) , result: -2

// growth inhibition lookup, compound = COc1cc(/C=C/Cc2cc3c(cc2OCCO)OCO3)cc(OC)c1OC , result: 19.6

// growth inhibition lookup, compound = O=C1NC(CN2CCCC(O)C2)C(=O)NC1CN1CCCC(O)C1 (stereo not drawn) , result: 7.6

// growth inhibition lookup, compound = O=C(NCCCCNCCCNC(=O)OCc1ccccc1)OCc1ccccc1 , result: -59.8

// growth inhibition lookup, compound = NC1=NN(c2ccccc2)C(=O)/C1=C\n1c(=S)[nH]c2ccccc21 , result: -26.6

// growth inhibition lookup, compound = Cc1c(COC(=O)NC(C)C)c(COC(=O)NC(C)C)c2n1CS(=O)(=O)C2 , result: 6.35

// growth inhibition lookup, compound = Brc1cc2ccccc2nc1-c1ccccc1 , result: 10.1

// growth inhibition lookup, compound = COc1ccc(Cc2ccc(Cl)cc2)c(OC)c1 , result: -5.15

// growth inhibition lookup, compound = Clc1ccccc1C1N2CCCCC2[C@@H]2c3[nH]c4ccccc4c3CCN12 (stereo partly drawn) , result: 2.4

// growth inhibition lookup, compound = CCOC(=O)C(CN)c1ccccc1 (stereo not drawn) , result: 3.6

// growth inhibition lookup, compound = Nc1ccc(S(=O)(=O)N/N=C/c2ccccc2)cc1 , result: 29.8

// growth inhibition lookup, compound = O=C(O)C(O)C(O)C(O)C(O)C(O)CO.[NH-]C1CCCCC1[NH-].[Pt+2] (stereo not drawn) , result: -49.5

// growth inhibition lookup, compound = CC(=O)NC(=O)C(C(C)=O)c1ccccc1 (stereo not drawn) , result: -10.9

// growth inhibition lookup, compound = CC(c1ccc([N+](=O)[O-])cc1)n1cnc2c(N(CCO)CCO)ncnc21 (stereo not drawn) , result: -0.5

// growth inhibition lookup, compound = COC(=O)c1cc(OC)c(O)c(OC)c1 , result: -19.9

// growth inhibition lookup, compound = CCCCC(CC)(CO)CO , result: 16.6

// growth inhibition lookup, compound = c1ccc(CC2CCCC(Cc3ccccc3)N2)cc1 (stereo not drawn) , result: 5.1

// growth inhibition lookup, compound = Cc1nc2c(ncn2C2OC(CO)C(O)C2O)c(=O)[nH]1 (stereo not drawn) , result: -18.4

// growth inhibition lookup, compound = O=c1[nH]c(=O)c2nc[nH]c(=O)c2[nH]1 , result: -13.2

// growth inhibition lookup, compound = N#Cc1cnn2ccn(C3OC(CO)C(O)C3O)c12 (stereo not drawn) , result: 14.9

// growth inhibition lookup, compound = CC(O)C12OC1CC1C3CC4OC45CC(O)CCC5(C)C3CCC12C (stereo not drawn) , result: 9.1

// growth inhibition lookup, compound = CCN(CC)CCOC(=O)c1ccc(NC(=O)Nc2ccccc2[N+](=O)[O-])cc1 , result: 14.8

// growth inhibition lookup, compound = O=C(O)C1Nc2ccccc2NC1=O (stereo not drawn) , result: 3.3
